Provide the reported pest or weed control at 1000 g/ha of each item.
tested on: IPOHE; experiment: Pre-emergence biological efficacy (Table 3); type: in vivo; details: Ipomoea hederacea, 312 h, 1000 g/ha, after 13 days, read-out: evaluation (100=total damage to plant; 0=no damage to plant)
Numbers only, in %.

Please review the entries below; each comes with its answer.
Cc1noc2ccc(Cl)c(C(F)(F)C(=O)O)c12 : 50
O=C(O)C(F)(F)c1c(Cl)ccc2ccccc12 : 50
O=C(O)C(F)(F)c1cccc(O)c1 : 20
O=C(O)C(F)(F)c1ccccc1OC(F)(F)F : 20
COC(=O)C(F)(F)c1c(Cl)ccc2cc(Cl)cnc12 : 50

Please fill in: pest or weed control at 1000 g/ha reported for COc1c(C)cccc1C(F)(F)C(=O)O = 50
